Measured values drawn from PubChem BioAssay for this set.

measurementNotes: reversal of MRP1-mediated doxorubicin resistance, pilot screen, H69AR cells, doxorubicin co-treatment (AID 601)
testConditions: H69AR cells, CellTiter-Glo, 72 h; compound alone cytotoxicity; at 10 µM

[
  {
    "compound": "CCOC(=O)N1CCN(C(=O)c2ccc3c(=O)n(CCc4ccccc4)c(=O)[nH]c3c2)CC1",
    "readingUnit": "%",
    "viability": 85.6
  },
  {
    "compound": "CC(C)CCn1c(=O)c2ccccc2n2c(CN(C)Cc3ccccc3)nnc12",
    "readingUnit": "%",
    "viability": 84.4
  },
  {
    "compound": "CCN(CC)C(=O)C1CCCN(Cc2ccc(N(C)C)cc2)C1 (stereo not drawn)",
    "readingUnit": "%",
    "viability": 89.5
  },
  {
    "compound": "COCCCNC(=O)C(Cc1ccccc1)NS(=O)(=O)c1ccc2c(c1)c(=O)n(C)c(=O)n2C (stereo not drawn)",
    "readingUnit": "%",
    "viability": 89.2
  },
  {
    "compound": "COc1ccc(-n2nnc3c(=O)n(C/C=C/c4ccccc4)cnc32)cc1",
    "readingUnit": "%",
    "viability": 86.1
  },
  {
    "compound": "Cc1cc(C)c(C)c(S(=O)(=O)Nc2ccc(O)cc2)c1C",
    "readingUnit": "%",
    "viability": 96.8
  },
  {
    "compound": "c1cn(CC2(Cn3ccnc3)COC2)cn1",
    "readingUnit": "%",
    "viability": 99.7
  },
  {
    "compound": "COC(=O)c1ccc(CNC(=O)CSc2nc3sc(C)c(C)c3c(=O)n2C)o1",
    "readingUnit": "%",
    "viability": 98.5
  },
  {
    "compound": "CCCCC1C(=O)N(c2ccccc2)N(c2ccccc2)C1=O",
    "readingUnit": "%",
    "viability": 98.5
  },
  {
    "compound": "CNC(=O)CSc1nnc(-c2cc(C)cc(C)c2)o1",
    "readingUnit": "%",
    "viability": 108
  },
  {
    "compound": "COc1ccc(-c2ccc(CCC(=O)O)n2NC(=O)c2cccs2)cc1",
    "readingUnit": "%",
    "viability": 101
  },
  {
    "compound": "COc1cc(-c2nc(S(=O)(=O)c3ccccc3)c(N3CCOCC3)o2)cc(OC)c1OC",
    "readingUnit": "%",
    "viability": 87.1
  },
  {
    "compound": "CN1CCN2c3ccccc3Cc3ccccc3C2C1 (stereo not drawn)",
    "readingUnit": "%",
    "viability": 90.2
  }
]

====

measurementNotes: growth suppression of PTEN-deleted HCT116, pilot screen, cell-based, HCT116 clonal line, CellTiter-Glo (AID 824);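 note: 0% = 20 µM Hyamine control and 100% = vehicle cell control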
testConditions: 60 h, at 10 µM, stronger effect = lower value
Records with an inconclusive call do not appear.

[
  {
    "molecule": "NC(=O)CNC1CC(=O)N(CCc2ccccc2)C1=O (configuration not stated)",
    "viability (%)": 98.5
  },
  {
    "molecule": "Cc1cc(N2CCOCC2)nc2cc(O)ccc12",
    "viability (%)": 87.6
  },
  {
    "molecule": "CCCSc1nnc(Cn2c(=O)sc3ccccc32)n1C",
    "viability (%)": 87.1
  },
  {
    "molecule": "COc1ccccc1-c1c(C)nn2c(NCCN3CCCC3)cc(C)nc12",
    "viability (%)": 92.6
  },
  {
    "molecule": "CCC1(C(=O)O)NC(c2cccc(OC)c2O)C2C(=O)N(c3ccccc3)C(=O)C21 (configuration not stated)",
    "viability (%)": 93.8
  },
  {
    "molecule": "COc1cc(OC)cc(C(=O)NCC2CCCO2)c1 (configuration not stated)",
    "viability (%)": 91.7
  },
  {
    "molecule": "COc1ccc(C(=O)c2c[nH]c3ccccc23)cc1",
    "viability (%)": 96.4
  },
  {
    "molecule": "COC(=O)C1=C(C)NC2=C(C(=O)CC(c3cccs3)C2)C1c1ccsc1 (configuration not stated)",
    "viability (%)": 40.1
  },
  {
    "molecule": "Cc1nn(-c2ccccc2)c2sc(C(=O)n3cccn3)cc12",
    "viability (%)": 92.4
  },
  {
    "molecule": "CCN1CCN(CC(=O)Nc2ccc3c(c2)OCCO3)C(=O)C1=O",
    "viability (%)": 103
  },
  {
    "molecule": "COc1ccc(-c2cn3c(C)c(C(=O)N4CCN(c5ccc(OC)cc5)CC4)sc3n2)cc1",
    "viability (%)": 104
  },
  {
    "molecule": "Cc1cc2ccccc2n1CCNC(=O)COc1ccccc1",
    "viability (%)": 94.2
  },
  {
    "molecule": "CC(C)N(Cc1ccccc1)C(=O)c1cnc2n(c1=O)CCS2",
    "viability (%)": 98.1
  },
  {
    "molecule": "Cc1ccc(CSc2nc3c(c(=O)[nH]c(=O)n3C)n2CCC(C)C)cc1",
    "viability (%)": 51.2
  },
  {
    "molecule": "CCCCn1c(C(C)NC(=O)COC)nc2ccccc21 (configuration not stated)",
    "viability (%)": 101
  },
  {
    "molecule": "O=C(NCCC1=CCCCC1)C1CCCN(S(=O)(=O)c2cccc3cccnc23)C1 (configuration not stated)",
    "viability (%)": 80.6
  },
  {
    "molecule": "CCc1ccc(NC(=O)CSc2nnc(Cc3cccn3C)n2-c2ccc(F)cc2)cc1",
    "viability (%)": 68.9
  },
  {
    "molecule": "COc1cc(OC)cc(C(=O)Nc2cccc(C(C)=O)c2)c1",
    "viability (%)": 89.9
  },
  {
    "molecule": "Cc1ccc(CC2S/C(=C(/C#N)C(=O)NCc3ccco3)N(c3ccccc3)C2=O)cc1 (configuration not stated)",
    "viability (%)": 60.6
  },
  {
    "molecule": "CC(=O)c1ccc(OCC(O)CN2CCOCC2)cc1 (configuration not stated)",
    "viability (%)": 90.7
  },
  {
    "molecule": "CCOc1ccc(Nc2cc(C)nc3nc(C)nn23)cc1",
    "viability (%)": 93.9
  },
  {
    "molecule": "CCCNC(=O)CS(=O)Cc1nc(-c2ccc(OC)cc2)oc1C (configuration not stated)",
    "viability (%)": 93.9
  }
]

====

measurementNotes: reducers of endogenous Her2 protein level, primary screen, SKBR3 breast tumor cells, AlphaScreen, ATP viability (AID 461);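 note: percent of carrier control wells set as 100% viability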
testConditions: 18-24 h, measured here: SKBR3 viability, ATP luminescence, at 10 µM
reportedEndpoint: viability (%)

[
  {
    "molecule": "NC(Cc1ccc(Oc2ccc(O)cc2)cc1)C(=O)O (configuration not stated)",
    "reportedEndpoint": "viability",
    "number": 92.5
  },
  {
    "molecule": "CC1CCc2c(sc(N)c2C(N)=O)C1 (configuration not stated)",
    "reportedEndpoint": "viability",
    "number": 95.5
  },
  {
    "molecule": "Cc1ccccc1NC(=O)Cc1nnc(SCC(=O)N2CCN(c3ccccc3)CC2)n1C",
    "reportedEndpoint": "viability",
    "number": 110
  },
  {
    "molecule": "O=C(c1ccco1)N1CCN(c2ccc(Cl)cc2)CC1",
    "reportedEndpoint": "viability",
    "number": 86
  },
  {
    "molecule": "Cc1cccc2cc(CN(CCCO)C(=O)Nc3ccc(Cl)cc3)c(=O)[nH]c12",
    "reportedEndpoint": "viability",
    "number": 74
  },
  {
    "molecule": "COCCNc1nc(SCC(=O)N2CCN(c3ccccc3)CC2)nc2ccccc12",
    "reportedEndpoint": "viability",
    "number": 72
  },
  {
    "molecule": "CC(=O)Nc1ccc(OCC(O)CN2CCN(c3cccc(Cl)c3)CC2)cc1 (configuration not stated)",
    "reportedEndpoint": "viability",
    "number": 76.5
  },
  {
    "molecule": "O=C(Nc1ccc(CN2CCOCC2)cc1)c1cc2ccccc2oc1=O",
    "reportedEndpoint": "viability",
    "number": 99.5
  },
  {
    "molecule": "O=C(Cn1cccc1C(=O)c1ccccc1)NCCN1CCOCC1",
    "reportedEndpoint": "viability",
    "number": 98
  },
  {
    "molecule": "COc1cccc(-c2nc(CSCC(=O)N3CCc4ccccc43)c(C)o2)c1",
    "reportedEndpoint": "viability",
    "number": 82.5
  },
  {
    "molecule": "O=C(CCCN1C(=O)c2ccccc2C1=O)Oc1ccc(F)cc1",
    "reportedEndpoint": "viability",
    "number": 98
  },
  {
    "molecule": "CCOc1ccc2[nH]c(=O)c(CN(CCOC)C(=O)N3CCOCC3)cc2c1",
    "reportedEndpoint": "viability",
    "number": 97
  },
  {
    "molecule": "COCCNC(=O)c1cc2c(-c3ccccc3F)nn(C)c2s1",
    "reportedEndpoint": "viability",
    "number": 109
  },
  {
    "molecule": "Cc1cc2ccccn2c1C(=O)c1ccncc1",
    "reportedEndpoint": "viability",
    "number": 114
  },
  {
    "molecule": "Cc1cc(C)c2c(CC(=O)NCc3ccco3)coc2c1",
    "reportedEndpoint": "viability",
    "number": 94
  },
  {
    "molecule": "COc1cc(OC)cc(C(=O)N2c3ccc(F)cc3CCC2C)c1 (configuration not stated)",
    "reportedEndpoint": "viability",
    "number": 94.5
  },
  {
    "molecule": "COCCNc1nc(C(C)(C)C)nc2c1nnn2Cc1ccccc1Cl",
    "reportedEndpoint": "viability",
    "number": 87
  },
  {
    "molecule": "CCn1c(C)cc(=S)c2ccccc21",
    "reportedEndpoint": "viability",
    "number": 114
  },
  {
    "molecule": "COc1cc(N2C(=O)CSC23C(=O)Nc2ccccc23)cc(OC)c1OC (configuration not stated)",
    "reportedEndpoint": "viability",
    "number": 95.5
  },
  {
    "molecule": "CC(=O)N1C(=O)C2(Nc3ccccc3N2)c2ccccc21",
    "reportedEndpoint": "viability",
    "number": 110
  },
  {
    "molecule": "COCCNC(=O)C(c1ccc(O)cc1)N(Cc1ccco1)C(=O)CCC(=O)Nc1nccs1 (configuration not stated)",
    "reportedEndpoint": "viability",
    "number": 81.5
  },
  {
    "molecule": "CCc1cc2ccc(C)cc2nc1SCC(=O)N1CCN(C(=O)c2ccco2)CC1",
    "reportedEndpoint": "viability",
    "number": 112
  },
  {
    "molecule": "CCCCCc1c(C)nc(N2CCc3ccccc32)[nH]c1=O",
    "reportedEndpoint": "viability",
    "number": 92.5
  },
  {
    "molecule": "O=C(NC1CCCCC1)c1cc2nc(-c3ccco3)cc(C(F)(F)F)n2n1",
    "reportedEndpoint": "viability",
    "number": 81.5
  },
  {
    "molecule": "COC(=O)CC1SCCNC1=O (configuration not stated)",
    "reportedEndpoint": "viability",
    "number": 92
  },
  {
    "molecule": "Cc1ccc2nc(NC(=O)C3CCCN(S(=O)(=O)c4cnc[nH]4)C3)sc2c1 (configuration not stated)",
    "reportedEndpoint": "viability",
    "number": 96.5
  },
  {
    "molecule": "COc1ccc2nc3oc(C(=O)N4CCCCC4)cc3cc2c1",
    "reportedEndpoint": "viability",
    "number": 98
  },
  {
    "molecule": "COc1cccc(NS(=O)(=O)c2cc(C)sc2C)c1",
    "reportedEndpoint": "viability",
    "number": 93.5
  },
  {
    "molecule": "CCOc1ccc(-c2nnn(CCC(=O)O)n2)cc1OC",
    "reportedEndpoint": "viability",
    "number": 95.5
  },
  {
    "molecule": "O=C(COC(=O)c1cncc(Br)c1)NCCC1=CCCCC1",
    "reportedEndpoint": "viability",
    "number": 93.5
  },
  {
    "molecule": "OCCOCCN1CCN(C(c2ccccc2)c2ccc(Cl)cc2)CC1 (configuration not stated)",
    "reportedEndpoint": "viability",
    "number": 79
  },
  {
    "molecule": "CC(C[N+](C)(C)C)OC(N)=O (configuration not stated)",
    "reportedEndpoint": "viability",
    "number": 101
  }
]
